log10 of Kd listing for selected binders.
measurement-target: T1, extracellular domain of rhesus monkey BCMA (rhesus monkey, UniProt F7FFA0 1-53)
T1 construct: extracellular domain; also called RhBCMA
T1 sequence (F7FFA0 entry or part of it): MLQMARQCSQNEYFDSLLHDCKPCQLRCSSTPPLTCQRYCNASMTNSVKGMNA
procedure-details: Octet BLI; Fab 200 nM
value-kind: log10 of Kd (log10 of the value in nM)

| binder | value-kind | quantitative-result |
| --- | --- | --- |
| AB200-(2Vk35)_R2-VH-v55 (Fab, V domains shown) VH: QVQLVQSGAEVKKPGSSVKVSCKASGGSFSNYWIHWVRQAPGQGLEWMGATYRIHSTTYYNQKYKSRVTITADKSTSTAYMELSSLRSEDTAVYYCARGAVYHGYDVIDNWGQGTLVTVSS VL: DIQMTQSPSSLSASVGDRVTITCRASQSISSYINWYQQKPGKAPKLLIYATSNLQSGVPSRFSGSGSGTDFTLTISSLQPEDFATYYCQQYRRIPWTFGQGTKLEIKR | log10 of Kd | 1.63 |
| AB200-(2Vk35)_R2-VH-v32 (Fab, V domains shown) VH: QVQLVQSGAEVKKPGSSVKVSCKASGGTFSNYWIHWVRQAPGQGLEWMGATYRSHSDTNYNQKYKSRVTITADKSTSTAYMELSSLRSEDTAVYYCARGAIFHGYDVIDNWGQGTLVTVSS VL: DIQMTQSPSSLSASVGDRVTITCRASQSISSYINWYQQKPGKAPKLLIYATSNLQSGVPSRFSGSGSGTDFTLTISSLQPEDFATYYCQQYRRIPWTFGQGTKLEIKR | log10 of Kd | 1.83 |
| AB200-(2Vk35)_R2-VH-v6 (Fab, V domains shown, also called AB200_VH2-06_VK2-35) VH: QVQLVQSGAEVKKPGSSVKVSCKASGGTFTNYWIHWVRQAPGQGLEWMGATYRSHSDTYYAQKYKSRVTITADKSTSTAYMELSSLRSEDTAVYYCARGAVYHGYDVIDNWGQGTLVTVSS VL: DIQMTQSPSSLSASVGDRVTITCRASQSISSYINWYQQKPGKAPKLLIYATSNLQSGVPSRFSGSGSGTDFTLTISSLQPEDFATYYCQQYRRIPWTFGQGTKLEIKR | log10 of Kd | 0.97 |
| AB200-(2Vk35)_R2-VH-v11 (Fab, V domains shown) VH: QVQLVQSGAEVKKPGSSVKVSCKASGGTYSNYWIHWVRQAPGQGLEWMGATYRSHSDTNYNEKFKSRVTITADKSTSTAYMELSSLRSEDTAVYYCARGAVYHGYDVIDNWGQGTLVTVSS VL: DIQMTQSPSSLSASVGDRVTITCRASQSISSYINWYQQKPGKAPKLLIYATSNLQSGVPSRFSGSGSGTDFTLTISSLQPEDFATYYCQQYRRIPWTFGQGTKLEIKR | log10 of Kd | 2.11 |
| AB200-(2Vk35)_R2-VH-v36 (Fab, V domains shown) VH: QVQLVQSGAEVKKPGSSVKVSCKASGGTFSNYWIHWVRQAPGQGLEWMGATYRSHSDTYYAEKFKSRVTITADKSTSTAYMELSSLRSEDTAVYYCARGAIFHGYDVIDNWGQGTLVTVSS VL: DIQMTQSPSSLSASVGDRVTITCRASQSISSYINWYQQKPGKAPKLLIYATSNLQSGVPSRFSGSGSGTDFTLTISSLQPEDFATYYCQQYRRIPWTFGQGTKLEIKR | log10 of Kd | 1.17 |
